# experimental target: IRAK4 (Homo sapiens)
# Construct: His (N); TEV cleavage site (N)
# Sequence (Q9NWZ3 whole entry): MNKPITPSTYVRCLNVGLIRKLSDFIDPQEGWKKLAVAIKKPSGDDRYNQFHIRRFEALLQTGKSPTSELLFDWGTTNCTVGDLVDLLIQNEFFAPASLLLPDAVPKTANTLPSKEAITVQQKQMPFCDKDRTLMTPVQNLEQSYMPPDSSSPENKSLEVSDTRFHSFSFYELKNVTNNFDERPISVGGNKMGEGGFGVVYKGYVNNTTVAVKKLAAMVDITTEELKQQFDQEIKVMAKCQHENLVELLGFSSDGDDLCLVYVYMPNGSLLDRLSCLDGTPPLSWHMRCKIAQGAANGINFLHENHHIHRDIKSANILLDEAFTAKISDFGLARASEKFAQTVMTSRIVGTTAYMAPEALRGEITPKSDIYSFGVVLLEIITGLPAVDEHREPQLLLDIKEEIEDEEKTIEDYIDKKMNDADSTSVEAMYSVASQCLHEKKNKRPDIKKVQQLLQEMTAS
# test protocol: IRAK4 Enzymatic Assay
# condition description: His-TEV-IRAK4 20 ng/well, ATP 2 μM, STK1-biotin peptide 300 nM, 3 hours at 30° C., FlashPlate radioactivity
Where a name gives a salt, the structure may show the parent alone.
measurement kind: IC50

Query :: Which IC50 is listed for Cn1cc(-c2cccc(-c3ncc(-c4cnn(CC(=O)O)c4)cn3)c2)cn1 ?
Result :: 1000 to 5000 nM

Query :: So what's the measured IC50 for this one? CO[C@@H]1COCCC1N1CCC(n2cc(-c3cnc(-c4cccc(-c5cnn(C)c5)c4)nc3)cn2)CC1 (stereo partly shown)
Result :: 100 to 1000 nM

Query :: Quick one: IC50 for Cn1cc(-c2cccc(-c3ncc(-c4cnn(CCN5CCCCC5)c4)cn3)c2)cn1 ?
Result :: 100 to 1000 nM

Query :: What value of measured IC50 is listed for CC(C)n1cc(-c2cccc(-c3ncc(-c4cnn(C5CCNCC5)c4)cn3)c2)cn1 [Example 20, hydrochloride] ?
Result :: 100 to 1000 nM

Query :: Look at this compound and give its reported IC50. CC(=O)N1CC[C@H](n2cc(-c3cnc(-c4cccc(-c5cnn(C)c5)c4)nc3)cn2)[C@@H](O)C1 [Example 225]
Result :: 100 to 1000 nM

Query :: If you can, please state the reported IC50 value of Cn1cc(-c2cccc(-c3ncc(-c4cnn([C@H]5CC[C@H](OCC6CC6)CC5)c4)cn3)c2)cn1 .
Result :: < 100 nM

Query :: Return reported IC50; argument: Cn1cc(-c2cccc(-c3ncc(-c4cnn(C5CCN(C(=O)C6CCCCO6)CC5)c4)cn3)c2)cn1 (stereo not shown)
Result :: 100 to 1000 nM

----------
# experimental target: IRAK4 (Homo sapiens)
# Construct: His (N); TEV cleavage site (N)
# test protocol: IRAK4 Enzymatic Assay
# condition description: His-TEV-IRAK4 20 ng/well, ATP 2 μM, STK1-biotin peptide 300 nM, 3 hours at 30° C., FlashPlate radioactivity
For each record, write down the corresponding IC50.

Query :: Consider the molecule CC(C(=O)N(C)C)n1cc(-c2cnc(-c3cccc(-c4cnn(C)c4)c3)nc2)cn1 (stereo not shown) and give its measured IC50.
Result :: 1 to 5 µM

Query :: IC50 lookup needed for Cn1cc(-c2cc(O)cc(-c3ncc(-c4cnn(C5CCNCC5)c4)cn3)c2)cn1 , thanks.
Result :: 0.1 to 1 µM

Query :: Sample Cn1cncc1-c1cccc(-c2ncc(-c3cnn(CC(=O)N4CCCC4)c3)cn2)c1 — what was its IC50?
Result :: 1 to 5 µM

Query :: // lookup IC50 for CC(C)OCC(CO)n1cc(-c2cnc(-c3cccc(-c4cnn(C)c4)c3)nc2)cn1 (stereo not shown)
Result :: 1 to 5 µM

Query :: # query: IC50 of entry Cn1cc(-c2cccc(-c3ncc(-c4cnn(C5CCCC5O)c4)cn3)c2)cn1 (stereo not shown)
Result :: 0.1 to 1 µM

Query :: Entry under review: Cn1cc(-c2cccc(-c3ncc(-c4cnn([C@H]5CC[C@H](C(=O)N6CCOCC6)CC5)c4)cn3)c2)cn1 . Reported IC50?
Result :: < 0.1 µM

Query :: Need IC50 of Cn1cc(-c2cccc(-c3ncc(-c4cnn(C5CCC(C(=O)O)CC5)c4)cn3)c2)cn1 (stereo not shown) , thanks.
Result :: 0.1 to 1 µM

Query :: Could you tell me which IC50 is on file for CN1CCC[C@H]1C(=O)N1CCC(n2cc(-c3cnc(-c4cccc(-c5cnn(C)c5)c4)nc3)cn2)CC1 ?
Result :: 0.1 to 1 µM

Query :: Requested field: IC50. Item: Cn1cc(-c2cccc(-c3ncc(-c4cnn(CCC5CCOC5=O)c4)cn3)c2)cn1 (stereo not shown)
Result :: 0.1 to 1 µM

Query :: So what does the record say about IC50 for Cc1cc(-c2cccc(-c3ncc(-c4cnn(C5CCOCC5)c4)cn3)c2)ccn1 ?
Result :: 0.1 to 1 µM

Query :: Find the recorded IC50 belonging to Cn1cc(-c2cccc(-c3ncc(-c4cnn(CC(O)CO)c4)cn3)c2)cn1 (stereo not shown) and report it.
Result :: 0.1 to 1 µM

Query :: Which IC50 reading was recorded for the molecule CN1CC(C(=O)N2CCC(n3cc(-c4cnc(-c5cccc(-c6cnn(C)c6)c5)nc4)cn3)CC2)CC1=O (stereo not shown) ?
Result :: 0.1 to 1 µM

Query :: IC50 lookup needed for Cn1cc(-c2cccc(-c3ncc(-c4cnn(C5CCN([C@H]6CCOC[C@H]6F)CC5)c4)cn3)c2)cn1 , thanks.
Result :: 0.1 to 1 µM

Query :: What value of measured IC50 is listed for CCN(C)C(=O)[C@H]1CC[C@H](n2cc(-c3cnc(-c4cccc(-c5cnn(C)c5)c4)nc3)cn2)CC1 ?
Result :: < 0.1 µM

Query :: Please look up its IC50: Cn1cc(-c2cccc(-c3ncc(-c4cnn(CC(=O)N5CCOC(CCO)C5)c4)cn3)c2)cn1 (stereo not shown)
Result :: 0.1 to 1 µM

Query :: What value of IC50 has been reported for the following molecule? Cn1cc(-c2cccc(-c3ncc(-c4cnn(Cc5ncco5)c4)cn3)c2)cn1
Result :: 1 to 5 µM
